B1: CDC25A (parent)
chain: KKFRTKSRTWAGEKSKREMYSRLK

# Variants of: B1
# protocolDescription: protein stability index of a GFP-peptide fusion (GPS, HEK-293T) (PSI 1-6); higher = more stable;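 note: lentivirally expressed fusions sorted by FACS into six bins by GFP to DsRed ratio, PSI derived from sequencing read proportions per bin multiplied by bin number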
# conditionDetails: c terminus: a fixed tail appended
assayReadout: protein stability index

| seqText | result |
| --- | --- |
| KKFRIKSRTWAGEKSKREMYSRLK [T5I] | 2.5 |
| KKFRTKSRTWAGEKSKREMYTRLK [S21T] | 2.56 |
| KKFRTKSRTWAGEKSKREKYSRLK [M19K] | 4.05 |
| KKFREKSRTWAGEKSKREMYSRLK [T5E] | 3.37 |
| KKFRTKSRTWAPEKSKREMYSRLK [G12P] | 3.93 |
| YKFRTKSRTWAGEKSKREMYSRLK [K1Y] | 2.71 |
| KKFRTKSRTWAGEKSKREMWSRLK [Y20W] | 2.37 |
| KKFRTKSRTWAGEKSPREMYSRLK [K16P] | 3.11 |
| KKFRTKSRTWAGEKSKKEMYSRLK [R17K] | 2.21 |
| KKFRTKSRTWAGEKSKREMYSWLK [R22W] | 2.28 |
| KKFRTMSRTWAGEKSKREMYSRLK [K6M] | 2.91 |
| KSFRTKSRTWAGEKSKREMYSRLK [K2S] | 3.06 |
| DKFRTKSRTWAGEKSKREMYSRLK [K1D] | 3.83 |
| KKFRTKSRTWDGEKSKREMYSRLK [A11D] | 2.92 |
| KKFRTKSRTWAGEKSKREMYSNLK [R22N] | 3.81 |
| KKFRTKSRTWAGEKSVREMYSRLK [K16V] | 2.78 |
| KKFRTKSRTWAGWKSKREMYSRLK [E13W] | 3.5 |
| KKFPTKSRTWAGEKSKREMYSRLK [R4P] | 3.09 |
| KKFRTKSRTWAMEKSKREMYSRLK [G12M] | 3.44 |
| KKFRTKSRTFAGEKSKREMYSRLK [W10F] | 3.47 |
| KKFRTKSRTWWGEKSKREMYSRLK [A11W] | 2.61 |
| KKFRTKSRTWAGEKSKREMYERLK [S21E] | 3.01 |
| KKFRTKSRTWAGEKSKREMYSSLK [R22S] | 2.79 |
| KKFRTTSRTWAGEKSKREMYSRLK [K6T] | 2.81 |
| KKFRTKSRTWASEKSKREMYSRLK [G12S] | 2.64 |
| KKFDTKSRTWAGEKSKREMYSRLK [R4D] | 3.04 |
| KKFRTKARTWAGEKSKREMYSRLK [S7A] | 3.3 |
| KKFRTKSRTWAGEKSKREMHSRLK [Y20H] | 3.01 |
| KKLRTKSRTWAGEKSKREMYSRLK [F3L] | 3.49 |
| KKFRTKSRTWAGEKSKREMNSRLK [Y20N] | 3.02 |
| KKFRTKSRTWVGEKSKREMYSRLK [A11V] | 2.74 |
| KKFRTKSRTWAGEKSKNEMYSRLK [R17N] | 2.24 |
| KKFRTKSRTWAGEKSKGEMYSRLK [R17G] | 2.99 |
| KKFRTKSRTWAGEKSKPEMYSRLK [R17P] | 4.04 |
| KKFRTKSRTWAGFKSKREMYSRLK [E13F] | 2.19 |
| KKFRTKSRTWAGEKSKREMYGRLK [S21G] | 3.32 |
| KKFRTKSRTWAGEKSKREMYSRPK [L23P] | 3.94 |
| KKFRTKSRTWANEKSKREMYSRLK [G12N] | 2.26 |
| KKFRTKSRTWAGEKSKAEMYSRLK [R17A] | 2.77 |
| WKFRTKSRTWAGEKSKREMYSRLK [K1W] | 2.37 |
| KKFRTKSRTWAGEKSKREMYSRAK [L23A] | 3.49 |
| KKFHTKSRTWAGEKSKREMYSRLK [R4H] | 3.6 |
| KKFTTKSRTWAGEKSKREMYSRLK [R4T] | 3.37 |
| KKFRTKSRTWAGEKSKREMYSRLF [K24F] | 2.06 |
| KKFRTKSRTWAGEHSKREMYSRLK [K14H] | 2.82 |
| KKFRTKSRTWPGEKSKREMYSRLK [A11P] | 3.98 |
